- Test system: MPNST multicellular tumor spheroids, viability % test/control
- Assay name: Anticancer human tumor MPNST cell line growth inhibition;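 also: luminescence signal used as surrogate for viable cell amount; spheroids exposed to agents for seven days after three days of growth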
- Recorded conditions: second compound 94.9 pM; first compound 3 µM; stronger effect = lower value
Measured parameter: viability, T/C (%)
Use % as the unit, but write only the number.

Some solved cases for reference:
- Compound: "CNCc1ccc(-c2cc(-c3nc(-c4ccc(S(=O)(=O)C(C)C)cc4)cnc3N)on2)cc1 + COc1cc2c(cc1O)CCNC21CSC2c3c(OC(C)=O)c(C)c4c(c3C(COC1=O)N1C(O)C3Cc5cc(C)c(OC)c(O)c5C(C21)N3C)OCO4"
  Measured number: 53.6
- Compound: "O=C(c1cc(Cc2n[nH]c(=O)c3ccccc23)ccc1F)N1CCN(C(=O)C2CC2)CC1 + COc1cc2c(cc1O)CCNC21CSC2c3c(OC(C)=O)c(C)c4c(c3C(COC1=O)N1C(O)C3Cc5cc(C)c(OC)c(O)c5C(C21)N3C)OCO4"
  Measured number: 39.7
- Compound: "Cn1ncnc1[C@H]1c2n[nH]c(=O)c3cc(F)cc(c23)N[C@@H]1c1ccc(F)cc1 + COc1cc2c(cc1O)CCNC21CSC2c3c(OC(C)=O)c(C)c4c(c3C(COC1=O)N1C(O)C3Cc5cc(C)c(OC)c(O)c5C(C21)N3C)OCO4"
  Measured number: 46

Please turn your attention to the following entry.
viability, T/C recorded for this compound, Cc1sc2c(c1C)C(c1ccc(Cl)cc1)=NC(CC(=O)Nc1ccc(O)cc1)c1nnc(C)n1-2 (centres undefined) + COc1cc2c(cc1O)CCNC21CSC2c3c(OC(C)=O)c(C)c4c(c3C(COC1=O)N1C(O)C3Cc5cc(C)c(OC)c(O)c5C(C21)N3C)OCO4 , is 23.9
